system: THP-1 ASC-GFP cells; assay: THP-1 ASC-GFP speck assay (NLRP3 inflammasome activation, nigericin); format: cell-based; conditions: THP1-ASC-GFP; PMA-differentiated, LPS primed, 10 μM nigericin
reported-metric: IC50 (µM)

// worked examples, IC50 included
>  <molecule>
CC(C)n1nc2c(c1NC(=O)NS(=O)(=O)c1cnn3c1OCC(C)(C)C3)CCC2

>  <IC50 (µM)>
0.9

$$$$
>  <molecule>
COc1cc(C(C)C)c(NC(=O)NS(=O)(=O)c2cnn3c2OCCC3)c(C(C)C)n1

>  <IC50 (µM)>
1.8

$$$$
>  <molecule>
CC(C)c1nn(CC(F)F)c(C(C)C)c1NC(=O)NS(=O)(=O)c1cnn2c1OCC(C)(C)C2

>  <IC50 (µM)>
0.56

$$$$
>  <molecule>
COc1cc(C(C)C)c(NC(=O)NS(=O)(=O)c2cnn3c2OCC(C)(C)C3)c(C(C)C)n1

>  <IC50 (µM)>
8.3

$$$$
>  <molecule>
CC(C)c1nn(C)c(C(C)C)c1NC(=O)NS(=O)(=O)c1cnn2c1OCC(C)(C)C2

>  <IC50 (µM)>
1.5

$$$$
>  <molecule>
CCn1nc(C(C)C)c(NC(=O)NS(=O)(=O)c2cnn3c2OCC(C)(C)C3)c1C(C)C

>  <IC50 (µM)>
1.4

$$$$

[a] COc1cc(C(C)C)c(NC(=O)NS(=O)(=O)c2cnn3c2OC[C@@H](N2CC(OC)C2)C3)c(C(C)C)n1 [Example 42a]
[b] COc1cc(C(C)C)c(NC(=O)NS(=O)(=O)c2cnn3c2OC[C@@H](N(C)C)C3)c(C(C)C)n1 [Example 52a]
-- ask Could you tell me which of a and b has the lower IC50 reading? Refer to your chosen entry by its label in the reply.
-- reply b
